# System: LNCaP
# ASSAY_SUMMARY: Antiproliferative activity against androgen-sensitive human LNCAP cells assessed as inhibition of cell growth at 50 uM incubated for 48 hrs by sulforhodamine B assay relative to control
# Format: functional
Tick 1 if inhibition at 50 µM is 70% or greater. Tick 0 if inhibition at 50 µM is less than 70%.

(Q) Determine whether measured inhibition at 50 µM meets or exceeds 70% for `C[C@]12CC[C@H]3[C@@H](CCC4=CC(=O)CC[C@@]43C)[C@@H]1CC[C@@H]2C(=O)Nc1nccs1`
(A) 1

(Q) Determine whether measured inhibition at 50 µM meets or exceeds 70% for `C[C@]12CC[C@H]3[C@@H](CCC4=CC(=O)CC[C@@]43C)[C@@H]1CC[C@@H]2C(=O)Nc1ccc(Cl)cc1`
(A) 0

(Q) Determine whether measured inhibition at 50 µM meets or exceeds 70% for `Cc1ccc(NC(=O)[C@H]2CC[C@H]3[C@@H]4CCC5=CC(=O)CC[C@]5(C)[C@H]4CC[C@]23C)cc1`
(A) 0

(Q) Determine whether measured inhibition at 50 µM meets or exceeds 70% for `C[C@]12CC[C@H]3[C@@H](CCC4=CC(=O)CC[C@@]43C)[C@@H]1CC[C@@H]2C(=O)Nc1cc(C(F)(F)F)cc(C(F)(F)F)c1`
(A) 1

(Q) Determine whether measured inhibition at 50 µM meets or exceeds 70% for `COc1ccc(NC(=O)[C@H]2CC[C@H]3[C@@H]4CCC5=CC(=O)CC[C@]5(C)[C@H]4CC[C@]23C)cc1`
(A) 0

(Q) Determine whether measured inhibition at 50 µM meets or exceeds 70% for CC(=O)N1CCN(c2ccc(OCC3COC(Cn4ccnc4)(c4ccc(Cl)cc4Cl)O3)cc2)CC1 (stereo unspecified)
(A) 1

(Q) Determine whether measured inhibition at 50 µM meets or exceeds 70% for `C[C@]12CC[C@H]3[C@@H](CCC4=CC(=O)CC[C@@]43C)[C@@H]1CC[C@@H]2C(=O)Nc1ccccc1`
(A) 0

(Q) Determine whether measured inhibition at 50 µM meets or exceeds 70% for CC(C)C(=O)Nc1ccc([N+](=O)[O-])c(C(F)(F)F)c1 [FLUTAMIDE]
(A) 0

(Q) Determine whether measured inhibition at 50 µM meets or exceeds 70% for CC(C)(C)NC(=O)[C@H]1CC[C@H]2[C@@H]3CC[C@H]4NC(=O)C=C[C@]4(C)[C@H]3CC[C@]12C [FINASTERIDE]
(A) 0

(Q) Determine whether measured inhibition at 50 µM meets or exceeds 70% for `C[C@]12CC[C@H]3[C@@H](CCC4=CC(=O)CC[C@@]43C)[C@@H]1CC[C@@H]2C(=O)Nc1ccc(F)cc1`
(A) 0

Source of measurements: ChEMBL document CHEMBL4715749
